Measured values drawn from ChEMBL document CHEMBL4513216 for this set.

Overview of reported cytotoxicity at 10 µM across a group of compounds:
Experiment: Toxicity liver stage against HepG2, at 10uM
Type: cell-based
Design: test concentration 10 uM, cell line HepG2-A16-CD81EGFP
Conditions: human, HepG2-A16-CD81EGFP cells; read-out: INHIBITION
Expressed in %, but write only the number.

Completed entries (count: 3):
>>> readout_number("Cn1nnnc1SC1CCc2ccccc2NC1=O (stereo not given)")
-3.22
>>> readout_number("COc1cccc(CN2CCCCC2c2n[nH]cc2-c2cc(C)no2)c1 (stereo not given)")
17.1
>>> readout_number("CNC(=O)C(C)(C)N1CCC[C@H]1C(=O)NCCN(C)C")
2.2

Prompt: For the compound Cc1ccc(NC(=O)NC(C)C(=O)N2CCS(=O)(=O)CC2)cc1 (stereo not given) , what cytotoxicity at 10 µM is on record?
Completion: -5.1

Prompt: Report cytotoxicity at 10 µM for `O=C(CC1CCCC1)N1CCC(c2nnc(-c3ccccn3)o2)CC1` please.
Completion: -3.32

Prompt: Which cytotoxicity at 10 µM value is on record for `O=S(=O)(c1cccc(F)c1)N1C[C@@H]2COC[C@]2(COCC2CC2)C1` ?
Completion: 12.5

Prompt: Would you mind telling me what cytotoxicity at 10 µM value was observed for `COc1ccccc1S(=O)(=O)N1CCN(C)[C@@H]2CS(=O)(=O)C[C@@H]21` ?
Completion: 19.3

Prompt: Requested field: cytotoxicity at 10 µM. Item: NC(=O)C1CN(c2ccc(Br)cn2)CCO1 (stereo not given)
Completion: 0.105

---

Measured cytotoxicity at 10 µM, listed per entry.
Experiment: Toxicity liver stage against HepG2, at 10uM
Format: cell-based
Parameters: test concentration 10 uM, cell line HepG2-A16-CD81EGFP
Settings: human, HepG2-A16-CD81EGFP cells; read-out: INHIBITION

>>> result("Cc1ccc2c(ccn2CCC(=O)O)c1")
"-3.69%"
>>> result("O=C(c1ccco1)N1CC[C@@H]2[C@H]1CCC(=O)N2c1ccccc1")
"-110%"

Prompt: Given `COC(C)(C)c1noc(C2(C#N)CCCCC2)n1` , state its recorded cytotoxicity at 10 µM.
Completion: -2.11%

Prompt: Look at this molecule and give its reported cytotoxicity at 10 µM. CCc1ccc(C(=O)N2CCN(CC(C)O)CC2)o1 (centres undefined)
Completion: -8.18%

---

Assay: Toxicity liver stage against HepG2, at 10uM
Format: cell-based
Parameters: test concentration 10 uM, cell line HepG2-A16-CD81EGFP
Settings: human, HepG2-A16-CD81EGFP cells; read-out: INHIBITION
experimental.readout: cytotoxicity at 10 µM (%)
Return type: number; implicit unit %.

Some molecules with recorded cytotoxicity at 10 µM:
>>> readout_number("CNC(=O)c1cc(NC(=O)Nc2cnn(CC(C)C)c2)ccc1F")
-3.79
>>> readout_number("CC(C)N(Cc1cnn(C)c1)CC1CCCN(S(C)(=O)=O)C1 (stereo unspecified)")
-21.4
>>> readout_number("OC(CNc1nc(C2CCCC2)nc2c1CCNCC2)C(F)(F)F (stereo unspecified)")
-4.78

Prompt: Request the reported cytotoxicity at 10 µM associated with CN1CCC(Nc2ccc(F)cc2OCC(F)(F)F)C1=O (stereo unspecified)
Completion: -0.898

Prompt: # get_value(readout='cytotoxicity at 10 µM', item= Cc1ccc(N2CCCC(NCC3=Cc4ccccc4OC3)C2)nn1 (stereo unspecified) )
Completion: -10.2

Prompt: Look up cytotoxicity at 10 µM for this molecule: `CS(=O)(=O)NC[C@H]1OC[C@H]2CN(CCc3ccccc3)CC[C@H]21`
Completion: -3.53

---

In this section, each of the compounds is paired with its reported cytotoxicity at 10 µM.
Assay: Toxicity liver stage against HepG2, at 10uM
Type: cell-based
Set-up: test concentration 10 uM, cell line HepG2-A16-CD81EGFP
Details: human, HepG2-A16-CD81EGFP cells; read-out: INHIBITION
Kindly answer with a numeric value in %, unit omitted.

>>> readout_number("CS(=O)(=O)N1CCC2(CC1)CN(CC1CCOC1)c1ccccc12 (stereo not drawn)")
-108
>>> readout_number("COc1ccc(CN2C[C@H](O)C[C@H]2c2nc(-c3ccccc3)no2)cc1")
0.223
>>> readout_number("COC(=O)[C@@H]1C[C@@H](NC(=O)CN2C(=O)N(C)Cc3ccccc32)CN1C")
-2.62
>>> readout_number("COCCC(=O)N1CCc2nc(N3CCOCC3)nc(NC(C)C)c2C1")
-108
>>> readout_number("COc1c(C2CC(=O)Nc3[nH]ncc32)cc2c(c1OC)OCO2 (stereo not drawn)")
3.66

Prompt: Bench note: what cytotoxicity at 10 µM did `Fc1cccc(Oc2nccnc2C2CCN(C3CCOCC3)CC2)c1` show?
Completion: 6.62

Prompt: Given the compound CN(C)C(C(=O)N1CC(c2ccccn2)C1)c1ccc2c(c1)OCO2 (stereo not drawn) , what is its reported cytotoxicity at 10 µM?
Completion: 10.6

Prompt: Field request: cytotoxicity at 10 µM | item: `O=C(NC1CCC1)c1n[nH]c2c1CNCC2`
Completion: 1.67

Prompt: // lookup cytotoxicity at 10 µM for Cn1ccnc1CC1CCCN(C(=O)Nc2cccn(C)c2=O)C1 (stereo not drawn)
Completion: -4.79

---

Experiment: Toxicity liver stage against HepG2, at 10uM
Type: cell-based
Design: test concentration 10 uM, cell line HepG2-A16-CD81EGFP
Details: human, HepG2-A16-CD81EGFP cells; read-out: INHIBITION
# reported cytotoxicity at 10 µM; entries follow
Expressed in %, but write only the number.

>>> readout_number("CCc1nc2n(n1)CCCC2NC(=O)Nc1cc(OC)ccc1C (stereo not drawn)")
12.7
>>> readout_number("Cc1ccc2nc(CNCCCN3CCCC3)cc(O)c2c1")
-49.6

Prompt: What measured cytotoxicity at 10 µM goes with Cc1ccc(NC(=O)C2CSCN2C(=O)c2cccnc2)c(C)c1 (stereo not drawn) ?
Completion: -1.9

---

Each entry below carries its reported cytotoxicity at 10 µM.
Test: Toxicity liver stage against HepG2, at 10uM
Type: cell-based
Parameters: test concentration 10 uM, cell line HepG2-A16-CD81EGFP
Details: human, HepG2-A16-CD81EGFP cells; read-out: INHIBITION
Please state the figure in %; there is no need to write the unit.

>>> readout_number("Cc1cc(C(=O)N2CCC3(CC2)CC(c2cccnc2)C(=O)N3C)no1 (configuration not stated)")
1.48
>>> readout_number("O=c1ccc2c(n1CC1CC1)CCC(NS(=O)(=O)C1CC1)C2 (configuration not stated)")
-63.9
>>> readout_number("CN(C)S(=O)(=O)N1CCC(c2ccnc(Nc3ccccn3)n2)C1 (configuration not stated)")
3.25
>>> readout_number("CC(=O)N1CC(=O)N(c2ccccc2)CC12CCN(Cc1nccs1)C2 (configuration not stated)")
-2.23

Prompt: Given the compound CC(O)CN1CCN(C(=O)c2cccc(CC#N)c2)CC1 (configuration not stated) , what is its reported cytotoxicity at 10 µM?
Completion: -3.74

Prompt: Requested read-out: cytotoxicity at 10 µM. Entry: `CNC(=O)[C@@H]1C[C@H]2CN(c3ncccn3)C[C@H]2N1C(C)C`
Completion: 9.72

Prompt: # query: cytotoxicity at 10 µM of entry `Fc1ccc(CN2CCOC[C@H](Oc3cccnc3)C2)cc1`
Completion: 7.35

Prompt: Which cytotoxicity at 10 µM reading was recorded for the compound Cc1nc(C)n(CC2CCCN2CC(=O)Nc2ccncc2)n1 (configuration not stated) ?
Completion: -1.73

Prompt: Requested read-out: cytotoxicity at 10 µM. Entry: CN(Cc1nc2ccccc2o1)C1CCCN(c2cccnn2)C1 (configuration not stated)
Completion: -9.43

---

Test: Toxicity liver stage against HepG2, at 10uM
Type: cell-based
Set-up: test concentration 10 uM, cell line HepG2-A16-CD81EGFP
Settings: human, HepG2-A16-CD81EGFP cells; read-out: INHIBITION
experimental.readout: cytotoxicity at 10 µM (%)
Reply numerically in %, unit not repeated.

>>> readout_number("Cc1cc(C)nc(Nc2cc(C)nc(C3CCN(C(C)C)C3)n2)n1 (stereo not drawn)")
3.06
>>> readout_number("O=C(NCCCO)Nc1cnc2cc(Cl)ccc2c1O")
2.05

Prompt: Please look up its cytotoxicity at 10 µM: O=C(c1n[nH]c(=O)c2ccccc12)N1CCCCC1c1ccn[nH]1 (stereo not drawn)
Completion: -0.285

Prompt: # lookup: cytotoxicity at 10 µM of COCC1CN(CCOc2ccc(Cl)cc2)Cc2c1cnn2C (stereo not drawn)
Completion: -102

Prompt: Dear colleague, I am looking for the recorded cytotoxicity at 10 µM of the following compound: `COc1ccc(CNC2(Cc3cc(CC(C)C)on3)COC2)cc1`
Completion: 4.71

Prompt: Consider the compound shown here: O=S(=O)(C1CC1)N1CCOCC2(CN(c3ncccn3)CCO2)C1 (stereo not drawn) What is its recorded cytotoxicity at 10 µM?
Completion: 6.37

Prompt: Would you kindly share the measured cytotoxicity at 10 µM for `Cn1nc2c(cc1=O)CN(Cc1nc(C3CC3)no1)CC2` ?
Completion: -10.8

Prompt: Need cytotoxicity at 10 µM of `CSc1c[nH]nc1NS(=O)(=O)c1cc(F)ccc1C` , thanks.
Completion: 6.98
